# ASSAY REMARKS: Solubility of Compound 1 in organic solvents other than MTBE/n-heptane
# Type: physicochemical
# CONDITION DETAILS: IPA, 10 °C, organic solvent or mixture, thermodynamic from solid
ASSAY READOUT: solubility (mg/mL)

[[record]]
chemical_smiles = "CCOC(=O)[C@@H]1CC2(CCN(c3cc(O[C@H](c4ccc(Cl)cc4-c4ccccc4)C(F)(F)F)nc(N)n3)CC2)CN1"
assay_readout = "solubility"
data_value = 79.6


###

# ASSAY REMARKS: Solubility of Compound 1 in organic solvents other than MTBE/n-heptane
# Format: physicochemical
# CONDITION DETAILS: EA/n-heptane 1:1, 10 °C, organic solvent or mixture, thermodynamic from solid
ASSAY READOUT: solubility (mg/mL)

[[record]]
chemical_smiles = "CCOC(=O)[C@@H]1CC2(CCN(c3cc(O[C@H](c4ccc(Cl)cc4-c4ccccc4)C(F)(F)F)nc(N)n3)CC2)CN1"
units_symbol = "mg/mL"
data_value = 422


###

# ASSAY REMARKS: Solubility of Compound 1 in organic solvents other than MTBE/n-heptane
# Type: physicochemical
# CONDITION DETAILS: acetone/n-heptane 1:1, 10 °C, organic solvent or mixture, thermodynamic from solid
# Description: Solubility and Form Measurement The solubility of Compound 1 was evaluated in organic solvents other than MTBE/n-heptane mixtures. The form of the residual solids was examined by XRPD.
ASSAY READOUT: solubility

[[record]]
compound = "CCOC(=O)[C@@H]1CC2(CCN(c3cc(O[C@H](c4ccc(Cl)cc4-c4ccccc4)C(F)(F)F)nc(N)n3)CC2)CN1 [Compound 1]"
assay_readout = "solubility"
data_value = "> 589 mg/mL"


###

# ASSAY REMARKS: Shake-flask solubility determination with stepwise addition of solvent
# Assay type: physicochemical
# CONDITION DETAILS: formic acid 99%, organic solvent or mixture, thermodynamic from solid, formic acid 99%; read-out: Solubility
# Excerpt: The method applied was a shake-flask solubility determination with stepwise addition of the solvent until complete dissolution is observed visually.
ASSAY READOUT: solubility

[[record]]
molecule = "CCOC(=O)[C@@H]1CC2(CCN(c3cc(O[C@H](c4ccc(Cl)cc4-c4ccccc4)C(F)(F)F)nc(N)n3)CC2)CN1 [Form 1]"
assay_readout = "solubility"
data_value = "97 to 970 mg/mL"


###

# ASSAY REMARKS: Shake-flask solubility determination with stepwise addition of solvent
# Assay type: physicochemical
# CONDITION DETAILS: n-heptane, organic solvent or mixture, thermodynamic from solid, n-heptane; read-out: Solubility
ASSAY READOUT: solubility

[[record]]
compound = "CCOC(=O)[C@@H]1CC2(CCN(c3cc(O[C@H](c4ccc(Cl)cc4-c4ccccc4)C(F)(F)F)nc(N)n3)CC2)CN1 [Form 1]"
assay_readout = "solubility"
data_value = "< 10.1 mg/mL"


###

# ASSAY REMARKS: Shake-flask solubility determination with stepwise addition of solvent
# Format: physicochemical
# CONDITION DETAILS: isopropyl acetate, organic solvent or mixture, thermodynamic from solid, isopropyl acetate; read-out: Solubility
ASSAY READOUT: solubility

[[record]]
compound = "CCOC(=O)[C@@H]1CC2(CCN(c3cc(O[C@H](c4ccc(Cl)cc4-c4ccccc4)C(F)(F)F)nc(N)n3)CC2)CN1 [Form 1]"
assay_readout = "solubility"
data_value = "103 to 1030 mg/mL"


###

# ASSAY REMARKS: Shake-flask solubility determination with stepwise addition of solvent
# Type: physicochemical
# CONDITION DETAILS: N,N-dimethyl-acetamide, organic solvent or mixture, thermodynamic from solid, N,N-dimethyl-acetamide; read-out: Solubility
ASSAY READOUT: solubility

[[record]]
compound = "CCOC(=O)[C@@H]1CC2(CCN(c3cc(O[C@H](c4ccc(Cl)cc4-c4ccccc4)C(F)(F)F)nc(N)n3)CC2)CN1 [Form 1]"
assay_readout = "solubility"
data_value = "96 to 960 mg/mL"


###

# ASSAY REMARKS: Solubility of Compound 1 in organic solvents other than MTBE/n-heptane
# Type: physicochemical
# CONDITION DETAILS: EtOH/n-heptane 1:1, 10 °C, organic solvent or mixture, thermodynamic from solid
ASSAY READOUT: solubility (mg/mL)

[[record]]
chemical_smiles = "CCOC(=O)[C@@H]1CC2(CCN(c3cc(O[C@H](c4ccc(Cl)cc4-c4ccccc4)C(F)(F)F)nc(N)n3)CC2)CN1"
assay_readout = "solubility"
data_value = 396


###

# ASSAY REMARKS: Shake-flask solubility determination with stepwise addition of solvent
# Format: physicochemical
# CONDITION DETAILS: dimethyl sulfoxide, organic solvent or mixture, thermodynamic from solid, dimethyl sulfoxide; read-out: Solubility
ASSAY READOUT: solubility

[[record]]
compound = "CCOC(=O)[C@@H]1CC2(CCN(c3cc(O[C@H](c4ccc(Cl)cc4-c4ccccc4)C(F)(F)F)nc(N)n3)CC2)CN1 [Form 1]"
assay_readout = "solubility"
data_value = "101 to 1010 mg/mL"


###

# ASSAY REMARKS: Solubility of Compound 1 in organic solvents other than MTBE/n-heptane
# Assay type: physicochemical
# CONDITION DETAILS: EA/n-heptane 1:3, 10 °C, organic solvent or mixture, thermodynamic from solid
ASSAY READOUT: solubility (mg/mL)

[[record]]
compound = "CCOC(=O)[C@@H]1CC2(CCN(c3cc(O[C@H](c4ccc(Cl)cc4-c4ccccc4)C(F)(F)F)nc(N)n3)CC2)CN1 [Compound 1]"
data_value = 115


###

# ASSAY REMARKS: Solubility of Compound 1, Form 3 in MTBE/n-heptane mixtures
# Assay type: physicochemical
# CONDITION DETAILS: MTBE/n-heptane 1/5, 45 °C, organic solvent or mixture, thermodynamic from solid
ASSAY READOUT: solubility (µg/mL)

[[record]]
compound = "CCOC(=O)[C@@H]1CC2(CCN(c3cc(O[C@H](c4ccc(Cl)cc4-c4ccccc4)C(F)(F)F)nc(N)n3)CC2)CN1 [Form 3]"
units_symbol = "µg/mL"
data_value = 4200


###

# ASSAY REMARKS: Solubility of Compound 1, Form 3 in MTBE/n-heptane mixtures
# Type: physicochemical
# CONDITION DETAILS: MTBE/n-heptane 1/2, 10 °C, organic solvent or mixture, thermodynamic from solid
# Protocol: Solubility of Compound 1, Form 3 The solubility of Compound 1 was evaluated in mixtures of MTBE/n-heptane mixtures at 10° C. and 45° C. The form of the residual solids was examined by XRPD.
ASSAY READOUT: solubility (mg/mL)

[[record]]
compound = "CCOC(=O)[C@@H]1CC2(CCN(c3cc(O[C@H](c4ccc(Cl)cc4-c4ccccc4)C(F)(F)F)nc(N)n3)CC2)CN1 [Form 3]"
data_value = 17.5


###

# ASSAY REMARKS: Shake-flask solubility determination with stepwise addition of solvent
# Type: physicochemical
# CONDITION DETAILS: ethyl acetate, organic solvent or mixture, thermodynamic from solid, ethyl acetate; read-out: Solubility
# Source text: The method applied was a shake-flask solubility determination with stepwise addition of the solvent until complete dissolution is observed visually.
ASSAY READOUT: solubility

[[record]]
compound = "CCOC(=O)[C@@H]1CC2(CCN(c3cc(O[C@H](c4ccc(Cl)cc4-c4ccccc4)C(F)(F)F)nc(N)n3)CC2)CN1 [Form 1]"
data_value = "101 to 1010 mg/mL"


###

# ASSAY REMARKS: Shake-flask solubility determination with stepwise addition of solvent
# Type: physicochemical
# CONDITION DETAILS: tetrahydrofuran, organic solvent or mixture, thermodynamic from solid, tetrahydrofuran; read-out: Solubility
ASSAY READOUT: solubility

[[record]]
compound = "CCOC(=O)[C@@H]1CC2(CCN(c3cc(O[C@H](c4ccc(Cl)cc4-c4ccccc4)C(F)(F)F)nc(N)n3)CC2)CN1 [Form 1]"
data_value = "97 to 970 mg/mL"


###

# ASSAY REMARKS: Solubility of Compound 1 in organic solvents other than MTBE/n-heptane
# Format: physicochemical
# CONDITION DETAILS: n-butanol, 10 °C, organic solvent or mixture, thermodynamic from solid
ASSAY READOUT: solubility (mg/mL)

[[record]]
chemical_smiles = "CCOC(=O)[C@@H]1CC2(CCN(c3cc(O[C@H](c4ccc(Cl)cc4-c4ccccc4)C(F)(F)F)nc(N)n3)CC2)CN1"
data_value = 268


###

# ASSAY REMARKS: Shake-flask solubility determination with stepwise addition of solvent
# Type: physicochemical
# CONDITION DETAILS: acetone, organic solvent or mixture, thermodynamic from solid, acetone; read-out: Solubility
ASSAY READOUT: solubility

[[record]]
compound = "CCOC(=O)[C@@H]1CC2(CCN(c3cc(O[C@H](c4ccc(Cl)cc4-c4ccccc4)C(F)(F)F)nc(N)n3)CC2)CN1 [Form 1]"
data_value = "96 to 960 mg/mL"


Data origin: patent US11203597B2
